molecular target: human MDM2 (residues 2–125) (Homo sapiens, UniProt Q00987); construct: human MDM2 (residues 2–125); made in house; host or cells: E. coli BL21 (DE3); experiment: Isothermal titration calorimetry of p53-peptide binding to MDM2; conditions: ITC, 15 °C, 50 mM Tris-HCl pH 8.0, 250 mM NaCl, 0.5 mM TCEP
Sequence (Q00987 2-125): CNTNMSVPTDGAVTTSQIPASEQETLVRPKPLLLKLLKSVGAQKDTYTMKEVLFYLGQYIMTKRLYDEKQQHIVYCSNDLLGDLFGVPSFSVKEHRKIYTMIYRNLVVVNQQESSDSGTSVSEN
Consider the following compounds and their measured TΔS of binding readings.
Please respond with the number in kcal/mol and leave the unit unwritten.

CC(=O)N[C@@H](CCC(=O)O)C(=O)N[C@@H](CC(=O)O)C(=O)N[C@@H](Cc1ccccc1)C(=O)N[C@@H](CCC(=O)O)C(=O)N[C@@H](CC(=O)O)C(=O)N[C@@H](CC(C)C)C(=O)N[C@@H](Cc1c[nH]c2ccccc12)C(=O)N[C@@H](CCCCN)C(=O)N[C@@H](CC(C)C)C(=O)N[C@@H](CC(C)C)C(=O)N1CCC[C@H]1C(=O)N[C@@H](CCC(=O)O)C(=O)N[C@@H](CC(N)=O)C(N)=O -3.03
CC(=O)N[C@@H](CCC(=O)O)C(=O)N[C@@H](CC(=O)O)C(=O)N[C@@H](Cc1ccccc1)C(=O)N[C@@H](CO)C(=O)N[C@@H](CC(=O)O)C(=O)N[C@@H](CC(C)C)C(=O)N[C@@H](Cc1c[nH]c2ccccc12)C(=O)N[C@@H](CCCCN)C(=O)N[C@@H](CC(C)C)C(=O)N[C@@H](CC(C)C)C(=O)N1CCC[C@H]1C(=O)N[C@@H](CCC(=O)O)C(=O)N[C@@H](CC(N)=O)C(N)=O -12.19

## Input Which TΔS of binding is listed for `CC(=O)N[C@@H](CCC(=O)O)C(=O)N[C@@H](CCC(=O)O)C(=O)N[C@@H](Cc1ccccc1)C(=O)N[C@@H](CO)C(=O)N[C@@H](CC(=O)O)C(=O)N[C@@H](CC(C)C)C(=O)N[C@@H](Cc1c[nH]c2ccccc12)C(=O)N[C@@H](CCCCN)C(=O)N[C@@H](CC(C)C)C(=O)N[C@@H](CC(C)C)C(=O)N1CCC[C@H]1C(=O)N[C@@H](CCC(=O)O)C(=O)N[C@@H](CC(N)=O)C(N)=O` ?
## Output -0.26
